experimental_protocol: BET inhibitor-based combinations targeting novel dependencies in MECOM-rearranged (r) AML: MV-4-11 cell line (AID 2202233); further: nearly all actives have a fitted effect of over 45% in size
details: MV-4-11 AML viability, CellTiter-Glo luminescence, 48 h; series mostly up to 46 µM
Records with an inconclusive call do not appear. The source made the active and inactive calls. The call rests on the fitted dose curve; in most records, active means well fitted inhibition curve with a large enough effect; inconclusive means small, poorly fitted or top-dose-only effect; inactive means no such curve, though single readings can be large or run the other way.
Your answer must be one of the following: active, inactive

Cc1ccc(C(=O)Nc2ccc(CN3CCN(C)CC3)c(C(F)(F)F)c2)cc1C#Cc1cnc2cccnn12 :: active
CNC(=O)c1ccc2c(C(=Nc3cccc(CN(C)C)c3)c3ccccc3)c(O)[nH]c2c1 :: active
Cn1c(=O)c2c(ncn2C)n(C)c1=O :: inactive
CCc1c2c(nc3ccc(O)cc13)-c1cc3c(c(=O)n1C2)COC(=O)[C@]3(O)CC :: active
Cc1cc(=O)oc2cc(O)ccc12 :: inactive

Q: In this assay, the call recorded for CN1CCN(Cc2ccc(NC(=O)Nc3ccc(Oc4cc(NC(=O)C5CC5)ncn4)cc3)cc2C(F)(F)F)CC1 was what?
Result: active

Q: // query: CCCCOc1c(C(=O)c2c(F)cc(C)cc2F)cnc2n[nH]cc12
Result: active

Q: // query: CC(C)C[C@H](NC(=O)CNC(=O)c1cc(Cl)ccc1Cl)B1OC(=O)CC(CC(=O)O)(C(=O)O)O1 (some centres not stated)
Result: active

Q: // query: O=C(NCCCNC(=O)c1ccc[nH]c1=O)c1cc(-c2ccccc2)on1
Result: active

Q: // query: CNC1CCC(N(Cc2cccc(-c3ccncc3)c2)C(=O)c2sc3ccccc3c2Cl)CC1 (configuration not stated)
Result: active
